Can you tell me selectivity ratio for the items I'm about to list?
# protocol-details: Selectivity index, ratio of ED50 for human KB-V1 cells to ED50 for chloroquine-sensitive Plasmodium falciparum D6
# Assay type: toxicity, cell-based
# conditions: read-out: Ratio ED50

>  <smiles-data>
COc1ccc2cc1Oc1ccc(cc1)C[C@H]1c3c(cc(OC)c(OC)c3Oc3cc4c(cc3OC)CCN[C@@H]4C2)CCN1C

>  <selectivity ratio>
44

$$$$
>  <smiles-data>
COc1ccc2cc1Oc1ccc(cc1)C[C@H]1c3cc(c(OC)cc3CCN1C)Oc1c(OC)c(OC)cc3c1[C@@H](C2)N(C)CC3

>  <selectivity ratio>
9

$$$$
>  <smiles-data>
COc1ccc2cc1Oc1ccc(cc1)C[C@H]1c3c(cc(OC)c(O)c3Oc3cc4c(cc3OC)CCN(C)[C@@H]4C2)CCN1C

>  <selectivity ratio>
30

$$$$
>  <smiles-data>
COc1ccc2cc1Oc1ccc(cc1)C[C@H]1c3cc(c(OC)cc3CCN1C)Oc1c(OC)c(OC)cc3c1[C@@H](C2)NCC3

>  <selectivity ratio>
42

$$$$
>  <smiles-data>
COc1ccc2cc1Oc1ccc(cc1)C[C@H]1c3c(cc(OC)c4c3Oc3cc5c(cc3O4)CCN(C)[C@@H]5C2)CCN1C

>  <selectivity ratio>
4

$$$$
>  <smiles-data>
C=C[C@H]1CN2CC[C@H]1C[C@H]2[C@H](O)c1ccnc2ccc(OC)cc12

>  <selectivity ratio>
737

$$$$

Next:
Noted for COc1ccc2cc1Oc1ccc(cc1)C[C@H]1c3c(cc(OC)c(O)c3Oc3cc4c(cc3OC)CCN[C@@H]4C2)CCN1C : its selectivity ratio reads 35

---

# protocol-details: Selectivity index, ratio of ED50 for human KB cells to ED50 for chloroquine-sensitive Plasmodium falciparum D6
# Assay type: toxicity, cell-based
# conditions: read-out: Ratio ED50
For each entry below, report its selectivity ratio value.

Here's what some known entries look like.
>  <compound>
COc1ccc2cc1Oc1ccc(cc1)C[C@H]1c3c(cc(OC)c4c3Oc3cc5c(cc3O4)CCN(C)[C@@H]5C2)CCN1C

>  <selectivity ratio>
49

$$$$
>  <compound>
COc1ccc2cc1Oc1ccc(cc1)C[C@H]1c3c(cc(OC)c(O)c3Oc3cc4c(cc3OC)CCN[C@@H]4C2)CCN1C

>  <selectivity ratio>
92

$$$$
>  <compound>
COc1ccc2cc1Oc1ccc(cc1)C[C@H]1c3c(cc(OC)c(O)c3Oc3cc4c(cc3OC)CCN(C)[C@@H]4C2)CCN1C

>  <selectivity ratio>
60

$$$$
>  <compound>
COc1ccc2cc1Oc1ccc(cc1)C[C@H]1c3c(cc(OC)c(OC)c3Oc3cc4c(cc3OC)CCN(C)[C@@H]4C2)CCN1C

>  <selectivity ratio>
37

$$$$
>  <compound>
COc1ccc2cc1Oc1ccc(cc1)C[C@H]1c3c(cc4c(c3Oc3cc5c(cc3OC)CCN(C)[C@@H]5C2)OCO4)CCN1C

>  <selectivity ratio>
42

$$$$

# per-item lookup of selectivity ratio; items listed below
1. COc1ccc2cc1Oc1ccc(cc1)C[C@H]1c3cc(c(OC)cc3CCN1C)Oc1c(O)c(OC)cc3c1[C@@H](C2)N(C)CC3
2. COc1ccc2cc1Oc1ccc(cc1)C[C@H]1c3cc(c(OC)cc3CCN1C)Oc1c(OC)c(OC)cc3c1[C@@H](C2)N(C)CC3
3. C=C[C@H]1CN2CC[C@H]1C[C@H]2[C@H](O)c1ccnc2ccc(OC)cc12
4. OC(c1cc(C(F)(F)F)nc2c(C(F)(F)F)cccc12)C1CCCCN1 (centres undefined)

54
40
> 2630
389

Could I get selectivity ratio for every one of these entries?
1. COc1ccc2cc1Oc1ccc(cc1)C[C@H]1c3c(cc4c(c3Oc3cc5c(cc3OC)CCN[C@@H]5C2)OCO4)CCN1C
2. COc1ccc2cc1Oc1ccc(cc1)C[C@H]1c3cc(c(OC)cc3CCN1C)Oc1c(OC)c(OC)cc3c1[C@@H](C2)NCC3
3. COc1ccc2cc1Oc1ccc(cc1)C[C@H]1c3cc(c(OC)cc3CCN1C)Oc1c(O)c(OC)cc3c1[C@@H](C2)NCC3
4. COc1ccc2cc1Oc1ccc(cc1)C[C@H]1c3c(cc(OC)c(OC)c3Oc3cc4c(cc3OC)CCN[C@@H]4C2)CCN1C
5. COc1ccc2cc1Oc1ccc(cc1)C[C@H]1c3c(cc(OC)c4c3Oc3cc5c(cc3O4)CCN=C5C2)CCN1C

[84, 95, 92, 131, 9]
